Just for reference, ChEMBL document CHEMBL5316306 is where these values come from.

Listing of entries alongside the reported IC50.
System tested: Proteasome subunit beta type-8 (Homo sapiens, UniProt P28062)
Sequence (P28062 whole entry): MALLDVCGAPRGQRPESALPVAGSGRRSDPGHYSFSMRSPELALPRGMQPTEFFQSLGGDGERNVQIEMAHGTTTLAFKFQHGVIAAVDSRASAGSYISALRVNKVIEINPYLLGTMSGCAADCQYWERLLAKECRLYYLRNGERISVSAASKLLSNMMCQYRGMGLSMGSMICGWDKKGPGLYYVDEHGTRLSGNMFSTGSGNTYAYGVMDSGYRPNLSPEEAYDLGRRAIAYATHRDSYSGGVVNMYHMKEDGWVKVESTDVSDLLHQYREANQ
Assay notes: Inhibition of human 20s immunoproteasome beta-5i subunit

// known answers, use as guide
• CC(C)(C)NC(=O)C[C@H](NC(=O)c1cnccn1)C(=O)NCc1cccc(B(O)O)c1 = > 100 µM
• CC(C)(C)NC(=O)C[C@H](NC(=O)C(=O)c1ccccc1)C(=O)NCc1cccc(B(O)O)c1 = > 100 µM
• CCCc1ccc(OCC(=O)N(Cc2nc(-c3cccnc3)no2)C(C)C)cc1 = > 100 µM
• CC(C)(C)NC(=O)C[C@H](NC(=O)CN1CCOCC1)C(=O)NCc1cccc(B(O)O)c1 = > 100 µM
• Cc1ccc(S(=O)(=O)N[C@@H](CC(=O)NC(C)(C)C)C(=O)Nc2cccc(B(O)O)c2)cc1 = > 100 µM
• CC(C)(C)NC(=O)C[C@H](NC(=O)CCc1ccc(F)cc1)C(=O)NCc1cccc(B(O)O)c1 = 47.9 µM
• Cc1ccc(S(=O)(=O)N[C@@H](CC(=O)NC(C)(C)C)C(=O)NCc2ccc(B(O)O)cc2)cc1 = > 100 µM
• Cc1ccc(S(=O)(=O)N[C@@H](CC(=O)NC(C)(C)C)C(=O)NCc2ccco2)cc1 = > 100 µM
• Cc1ncc(C(=O)N[C@@H](CC(=O)NC(C)(C)C)C(=O)NCc2cccc(B(O)O)c2)s1 = > 100 µM
• CC(C)(C)NC(=O)C[C@H](NC(=O)c1ccccc1)C(=O)NCc1cccc(B(O)O)c1 = > 100 µM

*Q* Report IC50 for Cc1ccc(S(=O)(=O)N[C@@H](CC(=O)NC(C)(C)C)C(=O)NCc2cccc(C(=O)O)c2)cc1 tested on Proteasome subunit beta type-8 (Homo sapiens, UniProt P28062).
*A* > 100 µM

*Q* What measured IC50 is associated with Cc1ccc(S(=O)(=O)N[C@@H](CC(=O)NC(C)(C)C)C(=O)NCc2ccc(B(O)O)o2)cc1 on Proteasome subunit beta type-8 (Homo sapiens, UniProt P28062)?
*A* 57.2 µM

*Q* # get_value(readout= IC50, system= Proteasome subunit beta type-8 (Homo sapiens, UniProt P28062)) for CC(C)(C)NC(=O)C[C@H](NC(=O)C(=O)c1c[nH]c2ccccc12)C(=O)NCc1cccc(B(O)O)c1
*A* 7.1 µM

---

System tested: Proteasome subunit beta type-8 (Homo sapiens)
Assay notes: Inhibition of human 20s immunoproteasome beta-5i subunit
pIC50: −log10 of the molar value.
A collection of molecules and their measured pIC50

* Cc1cc(C(=O)N[C@@H](CC(=O)NC(C)(C)C)C(=O)NCc2cccc(B(O)O)c2)no1 | < 4.00
* Cc1ccc(S(=O)(=O)N[C@@H](CC(=O)NC(C)(C)C)C(=O)NCc2cccs2)cc1 | < 4.00
* Cc1ccc(S(=O)(=O)N[C@@H](CC(=O)NC(C)(C)C)C(=O)NCc2ccc(B(O)O)s2)cc1 | < 4.00

*Q* For CC(C)(C)NC(=O)C[C@H](NC(=O)C(=O)C1CC1)C(=O)NCc1cccc(B(O)O)c1 , what is its reported pIC50?
*A* < 4.00

*Q* Given the molecule Cc1ccc(S(=O)(=O)N[C@@H](CC(=O)NC(C)(C)C)C(=O)NCc2cccc(F)c2)cc1 , what is its reported pIC50?
*A* < 4.00

*Q* Give its pIC50 value. Item: Cc1ccc(S(=O)(=O)N[C@@H](CC(=O)NC(C)(C)C)C(=O)NCc2ccccc2)cc1
*A* < 4.00

---

System tested: Proteasome subunit beta type-8 (Homo sapiens)
Assay notes: Inhibition of human 20s immunoproteasome beta-5i subunit
# maps each entry to its IC50

* Cc1ccc(S(=O)(=O)N[C@@H](CC(=O)NC(C)(C)C)C(=O)NCc2cccc(C(F)(F)F)c2)cc1 | > 100 µM
* CC(C)(C)NC(=O)C[C@H](NC(=O)c1cc(Cl)ccc1Cl)C(=O)NCc1cccc(B(O)O)c1 | 57.7 µM
* Cc1ccc(S(=O)(=O)N[C@@H](CC(=O)NC(C)(C)C)C(=O)NCc2cccc(O)c2)cc1 | > 100 µM
* Cc1ccc(S(=O)(=O)N[C@@H](CC(=O)NC(C)(C)C)C(=O)Nc2ccc(B(O)O)cc2)cc1 | > 100 µM

*Q* Would you mind telling me what IC50 value was observed for Cc1ccc(S(=O)(=O)N[C@@H](CC(=O)NC(C)(C)C)C(=O)NCc2cccc(B(O)O)c2)cc1 ?
*A* > 100 µM
